Test system: Staphylococcus aureus SG 511
Assay: MIC, standard strain 4
Assay type: cell-based
Details: SG511, S. aureus SG 511, two-fold dilution, Muller Hinton agar, 10^7 CFU/ml, 37° C., 18 hours, read-out: Minimal Inhibitory Concentration(MIC)
MIC listing for selected molecules.

molecule | MIC
CCO/N=C(\C(=O)N[C@@H]1C(=O)N2C(C(=O)[O-])=C(C[n+]3ccc(C(N)=O)c4c3CCC4)CS[C@H]12)c1csc(N)n1 [Example 13] | 781 mg/L
NC(=O)c1cc[n+](CC2=C(C(=O)[O-])N3C(=O)[C@@H](NC(=O)/C(=N\OCCF)c4csc(N)n4)[C@H]3SC2)c2c1CCC2 [Example 14] | 781 mg/L
CO/N=C(\C(=O)N[C@@H]1C(=O)N2C(C(=O)[O-])=C(C[n+]3ccc(C(=O)O)c4c3CCC4)CS[C@H]12)c1csc(N)n1 [Example 2] | 6250 mg/L
CO/N=C(\C(=O)N[C@@H]1C(=O)N2C(C(=O)[O-])=C(C[n+]3cccc4c3CCC4)CS[C@H]12)c1csc(N)n1 [cefpirome, reference compound] | 391 mg/L
CO/N=C(\C(=O)N[C@@H]1C(=O)N2C(C(=O)[O-])=C(C[n+]3ccc(NC=O)c4c3CCC4)CS[C@H]12)c1csc(N)n1 [Example 19] | 391 mg/L
CCOC(=O)c1cc[n+](CC2=C(C(=O)[O-])N3C(=O)[C@@H](NC(=O)/C(=N\OC)c4csc(N)n4)[C@H]3SC2)c2c1CCC2 [Example 1] | 1560 mg/L
CO/N=C(\C(=O)N[C@@H]1C(=O)N2C(C(=O)[O-])=C(C[n+]3ccc(NC(C)=O)c4c3CCC4)CS[C@H]12)c1csc(N)n1 [Example 17] | 781 mg/L
